# tested target: BRD9 (Homo sapiens, UniProt Q9H8M2)
# Sequence (Q9H8M2 1-597): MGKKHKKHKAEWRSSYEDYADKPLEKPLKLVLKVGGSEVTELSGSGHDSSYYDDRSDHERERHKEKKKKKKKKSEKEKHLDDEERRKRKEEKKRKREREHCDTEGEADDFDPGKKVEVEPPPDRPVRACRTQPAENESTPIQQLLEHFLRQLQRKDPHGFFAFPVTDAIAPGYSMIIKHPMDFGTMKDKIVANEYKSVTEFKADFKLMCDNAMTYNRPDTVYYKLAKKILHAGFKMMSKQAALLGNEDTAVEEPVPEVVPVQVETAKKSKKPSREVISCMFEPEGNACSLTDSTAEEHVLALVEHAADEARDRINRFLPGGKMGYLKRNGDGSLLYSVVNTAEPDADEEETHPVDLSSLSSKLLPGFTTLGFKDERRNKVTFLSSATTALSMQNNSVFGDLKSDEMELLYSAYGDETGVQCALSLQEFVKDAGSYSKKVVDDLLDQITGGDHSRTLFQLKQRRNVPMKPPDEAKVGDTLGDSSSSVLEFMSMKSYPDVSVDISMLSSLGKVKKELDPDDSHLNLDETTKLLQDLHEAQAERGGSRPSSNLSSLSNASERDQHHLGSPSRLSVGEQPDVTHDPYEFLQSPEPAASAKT
# assay info: Degradation of BRD9 (IF), immunofluorescence in MV4-11 cells, 24 hours (Assay Protocol 2)
# Type: cell-based
# Parameters: A suspension of MV4-11 cells (ATCC CRL-9591) was prepared; host or cells: MV4-11
# condition label: Assay protocol 2; BRD9 degradation; read-out: DC50
Please provide measured DC50 for the entries that follow.

Ask: Retrieve DC50 measured for COc1cc(-c2cn(C)c(=O)c(C)c2C)cc(OC)c1CN1CCC(Cc2cccc3c2CCN(C(=O)/C(C#N)=C/C(C)(C)C)[C@H]3C)CC1 (single isomer, unassigned) and print it.
Result: 1.25 to 10 nM

Ask: Retrieve DC50 measured for CCCC(c1cccc(C(=O)N2CCN(Cc3c(OC)cc(-c4cn(C)c(=O)c(C)c4C)cc3OC)CC2)c1)N(C)C(=O)/C(C#N)=C/c1nccs1 (mixture of isomers) and print it.
Result: 1.25 to 10 nM

Ask: Retrieve DC50 measured for COc1cc(-c2cn(C)c(=O)c(C)c2C)cc(OC)c1CN1CCC(Oc2cccc(C3CCCN3C(=O)/C(C#N)=C/C(C)(C)C)c2)CC1 (mixture of isomers) and print it.
Result: 1.25 to 10 nM

Ask: Retrieve DC50 measured for COc1cc(-c2cn(C)c(=O)c(C)c2C)cc(OC)c1CN1CCCN(c2ccc3c(c2)[C@@H](C)N(C(=O)/C(C#N)=C/C(C)(C)CF)CC3)CC1 (mixture of isomers) and print it.
Result: 10 to 25 nM

Ask: Retrieve DC50 measured for CC[C@H]1c2cccc(CN3CCN(Cc4c(OC)cc(-c5cn(C)c(=O)c(C)c5C)cc4OC)C4(CC4)C3)c2CCN1C(=O)/C(C#N)=C/C(C)(C)CF (single isomer, unassigned) and print it.
Result: 25 to 1000 nM

====

# tested target: BRD9 (Homo sapiens)
# Sequence (Q9H8M2 1-597): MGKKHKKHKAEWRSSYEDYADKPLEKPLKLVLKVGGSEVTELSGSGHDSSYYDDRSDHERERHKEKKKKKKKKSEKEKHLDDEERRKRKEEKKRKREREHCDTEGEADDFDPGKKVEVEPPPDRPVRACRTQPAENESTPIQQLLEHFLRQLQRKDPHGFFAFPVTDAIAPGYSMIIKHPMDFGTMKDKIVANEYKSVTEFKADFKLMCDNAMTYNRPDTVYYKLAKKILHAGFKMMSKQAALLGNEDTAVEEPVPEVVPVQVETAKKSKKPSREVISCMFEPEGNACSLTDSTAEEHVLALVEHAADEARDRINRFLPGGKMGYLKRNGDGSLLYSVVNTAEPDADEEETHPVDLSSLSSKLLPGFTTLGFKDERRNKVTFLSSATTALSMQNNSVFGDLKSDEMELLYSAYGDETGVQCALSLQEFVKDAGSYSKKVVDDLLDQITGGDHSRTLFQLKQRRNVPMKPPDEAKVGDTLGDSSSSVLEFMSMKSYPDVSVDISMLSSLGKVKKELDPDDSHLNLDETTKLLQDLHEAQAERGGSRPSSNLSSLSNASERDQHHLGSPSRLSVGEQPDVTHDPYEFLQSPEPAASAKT
# assay info: BRD9 degradation, HiBiT-BRD9 KI HEK293 (LgBiT) cells, NanoGlo Lytic Endpoint assay (Assay Protocol 1)
# Type: cell-based
# condition label: HEK293; Table 2; BRD9 degradation, Assay Protocol 1; 1 μM compound at 6 h of treatment; read-out: Assay 1 Dmax
Please provide measured Dmax at 1 µM for the entries that follow.

Ask: Retrieve Dmax at 1 µM measured for COc1cc(-c2cn(C)c(=O)c(C)c2C)cc(OC)c1CN1CCN(Cc2cccc3c2CCN(C(=O)/C(C#N)=C/C2CCC2)C3C)CC1 (mixture of isomers) [Compound A45] and print it.
Result: 70 to 75%

Ask: Retrieve Dmax at 1 µM measured for COc1cc(-c2cn(C)c(=O)c(C)c2C)cc(OC)c1CN1CCC(Oc2cccc3c2CCN(C(=O)/C(C#N)=C/c2cccc(Br)n2)C3C)CC1 (mixture of isomers) [Compound A68] and print it.
Result: > 75%

Ask: Retrieve Dmax at 1 µM measured for COc1cc(-c2cn(C)c(=O)c(C)c2C)cc(OC)c1CN1CCN(Cc2cccc3c2CCN(C(=O)/C(C#N)=C/C(C)C)C3C)CC1 (mixture of isomers) [Compound A43] and print it.
Result: 70 to 75%

====

# tested target: BRD9 (Homo sapiens)
# assay info: Degradation of BRD9 (IF), immunofluorescence in MV4-11 cells, 24 hours (Assay Protocol 2)
# Format: cell-based
# Design: A suspension of MV4-11 cells (ATCC CRL-9591) was prepared; host or cells: MV4-11
# condition label: MV4-11, Assay protocol 2; BRD9 degradation; read-out: Dmax
Please provide measured Dmax for the entries that follow.

Ask: Retrieve Dmax measured for COc1cc(-c2cn(C)c(=O)c(C)c2C)cc(OC)c1CN1CCC(Cc2cccc3c2CCN(C(=O)/C(C#N)=C/C(C)(C)C)C3C)C(C)(C)C1 (centres unmarked) [Compound C62] and print it.
Result: > 75%

Ask: Retrieve Dmax measured for COc1cc(-c2cn(C)c(=O)c(C)c2C)cc(OC)c1CN1CCC(O)(Cc2cccc3c2CCN(C(=O)/C(C#N)=C/C(C)(C)C)C3C)CC1 (mixture of isomers) [Compound B175] and print it.
Result: 40 to 70%

Ask: Retrieve Dmax measured for COc1cc(-c2cn(C)c(=O)c(C)c2C)cc(OC)c1CN1CCC2(CC1)CCN(c1cccc3c1CCN(C(=O)/C(C#N)=C/C(C)(C)C)[C@@H]3C)C2 [Compound C47] and print it.
Result: > 75%

Ask: Retrieve Dmax measured for COc1cc(-c2cn(C)c(=O)c(C)c2C)cc(OC)c1CN1CCC2(CC1)CCN(c1cccc3c1CCN(C(=O)/C(C#N)=C/C(C)(C)C)C3C)C2 (centres unmarked) [Compound B63] and print it.
Result: 40 to 70%

Ask: Retrieve Dmax measured for CC[C@@H]1c2cccc(CN3CCN(Cc4c(OC)cc(-c5cn(C)c(=O)c(C)c5C)cc4OC)C4(CC4)C3)c2CCN1C(=O)/C(C#N)=C/C(C)(C)CF (single isomer, unassigned) [Compound C105] and print it.
Result: > 75%

====

# tested target: BRD9 (Homo sapiens, UniProt Q9H8M2)
# assay info: Degradation of BRD9 (IF), immunofluorescence in MV4-11 cells, 24 hours (Assay Protocol 2)
# Format: cell-based
# Set-up: A suspension of MV4-11 cells (ATCC CRL-9591) was prepared; host or cells: MV4-11
# condition label: Assay protocol 2; BRD9 degradation; read-out: DC50
Please provide measured DC50 for the entries that follow.

Ask: Specify the recorded DC50 for COc1cc(-c2cn(C)c(=O)c(C)c2C)cc(OC)c1CN1CCN(Cc2ccc3c(c2)[C@@H](C)N(C(=O)/C(C#N)=C/C2(OC)CC2)CC3)C2(CC2)C1 (single isomer, unassigned) [Compound C37] , system: BRD9 (Homo sapiens, UniProt Q9H8M2).
Result: < 1.25 nM

Ask: Specify the recorded DC50 for COc1cc(-c2cn(C)c(=O)c(C)c2C)cc(OC)c1CN1CCN(Cc2cccc3c2CCN(C(=O)/C(C#N)=C/C2(C)CC2)C3C)CC1 (mixture of isomers) [Compound C27] , system: BRD9 (Homo sapiens, UniProt Q9H8M2).
Result: > 1000 nM

Ask: Specify the recorded DC50 for COc1cc(-c2cn(C)c(=O)c(C)c2C)cc(OC)c1CN1CC[C@H](Oc2cccc(C3CCCN3C(=O)/C(C#N)=C/C(C)(C)C)c2)C1 (mixture of isomers) [Compound B67] , system: BRD9 (Homo sapiens, UniProt Q9H8M2).
Result: 1.25 to 10 nM

Ask: Specify the recorded DC50 for COc1cc(-c2cn(C)c(=O)c(C)c2C)cc(OC)c1CN1CCN(Cc2ccc3c(c2)[C@H](C)N(C(=O)/C(C#N)=C/C(C)(C)C)CC3)C2(CC2)C1 (single isomer, unassigned) [Compound C36] , system: BRD9 (Homo sapiens, UniProt Q9H8M2).
Result: 10 to 25 nM

Ask: Specify the recorded DC50 for COc1cc(-c2cn(C)c(=O)c(C)c2C)cc(OC)c1CN1CCN(Cc2ccc3c(c2)CN(C(=O)/C(C#N)=C/C(C)(C)C)CC3)C2(CC2)C1 [Compound C1] , system: BRD9 (Homo sapiens, UniProt Q9H8M2).
Result: < 1.25 nM

Ask: Specify the recorded DC50 for COc1cc(-c2cn(C)c(=O)c(C)c2C)cc(OC)c1CN1CCN(Cc2cccc3c2CCN(C(=O)/C(C#N)=C/C(C)(C)C)[C@H]3C)[C@@H](C)C1 (single isomer, unassigned) [Compound B197] , system: BRD9 (Homo sapiens, UniProt Q9H8M2).
Result: 25 to 1000 nM

Ask: Specify the recorded DC50 for CCC[C@@H]1c2cccc(CN3CCN(Cc4c(OC)cc(-c5cn(C)c(=O)c(C)c5C)cc4OC)CC34CC4)c2CCN1C(=O)/C(C#N)=C/C(C)(C)C (single isomer, unassigned) [Compound C101] , system: BRD9 (Homo sapiens, UniProt Q9H8M2).
Result: 25 to 1000 nM

Ask: Specify the recorded DC50 for COc1cc(-c2cn(C)c(=O)c(C)c2C)cc(F)c1CN1CCN(Cc2ccc3c(c2)[C@@H](C)N(C(=O)/C(C#N)=C/C(C)(C)C)CC3)C2(CC2)C1 (single isomer, unassigned) [Compound C5] , system: BRD9 (Homo sapiens, UniProt Q9H8M2).
Result: 10 to 25 nM

Ask: Specify the recorded DC50 for COc1cc(-c2cn(C)c(=O)c(C)c2C)cc(OC)c1C(=O)N1CCN(Cc2cccc(C3CCCN3C(=O)/C(C#N)=C/C(C)(C)C)c2)CC1 (mixture of isomers) [Compound B46] , system: BRD9 (Homo sapiens, UniProt Q9H8M2).
Result: 1.25 to 10 nM

Ask: Specify the recorded DC50 for COc1cc(-c2cn(C)c(=O)c(C)c2C)cc(OC)c1CN1CCN(Cc2ccc3c(c2)[C@@H](C)N(C(=O)/C(C#N)=C/C(C)(C)CF)CC3)C2(CC2)C1 (single isomer, unassigned) [Compound B202] , system: BRD9 (Homo sapiens, UniProt Q9H8M2).
Result: < 1.25 nM

Ask: Specify the recorded DC50 for COc1cc(-c2cn(C)c(=O)c(C)c2C)cc(OC)c1CN1CCN(Cc2cccc3c2CCN(C(=O)/C(C#N)=C/c2cc(C(F)(F)F)ccn2)C3C)CC1 (mixture of isomers) [Compound B50] , system: BRD9 (Homo sapiens, UniProt Q9H8M2).
Result: 10 to 25 nM

Ask: Specify the recorded DC50 for COc1cc(-c2cn(C)c(=O)c(C)c2C)ccc1CC1CCN(Cc2cccc3c2CCN(C(=O)/C(C#N)=C/C(C)(C)C)C3C)C(C)(C)C1 (mixture of isomers) [Compound C74] , system: BRD9 (Homo sapiens, UniProt Q9H8M2).
Result: 25 to 1000 nM

Ask: Specify the recorded DC50 for COc1cc(-c2cn(C)c(=O)c(C)c2C)cc(OC)c1CN1CCC2(CC1)CN(c1cccc(C3CCCN3C(=O)C(C#N)=CC(C)(C)C)c1)C2 (single isomer, unassigned) [Compound B43] , system: BRD9 (Homo sapiens, UniProt Q9H8M2).
Result: 1.25 to 10 nM

Ask: Specify the recorded DC50 for CC[C@H]1CN(Cc2c(OC)cc(-c3cn(C)c(=O)c(C)c3C)cc2OC)CCN1Cc1cccc2c1CCN(C(=O)/C(C#N)=C/C(C)(C)C)C2C (mixture of isomers) [Compound B113] , system: BRD9 (Homo sapiens, UniProt Q9H8M2).
Result: 1.25 to 10 nM

Ask: Specify the recorded DC50 for COc1cc(-c2cn(C)c(=O)c(C)c2C)ccc1CN1CCN(Cc2cccc3c2CCN(C(=O)/C(C#N)=C/C(C)(C)C)C3C)C2(CC2)C1 (mixture of isomers) [Compound B147] , system: BRD9 (Homo sapiens, UniProt Q9H8M2).
Result: 1.25 to 10 nM

Ask: Specify the recorded DC50 for COc1cc(-c2cn(C)c(=O)c(C)c2C)cc(OC)c1CN1CCCN(Cc2ccc3c(c2)[C@@H](C)N(C(=O)/C(C#N)=C/C(C)(C)C)CC3)CC1 (single isomer, unassigned) [Compound C107] , system: BRD9 (Homo sapiens, UniProt Q9H8M2).
Result: 10 to 25 nM

Ask: Specify the recorded DC50 for COc1cc(-c2cn(C)c(=O)c(C)c2C)cc(OC)c1CN1C[C@@H](C)N(Cc2cccc3c2CCN(C(=O)/C(C#N)=C/C(C)(C)C)C3C)C[C@H]1C (mixture of isomers) [Compound B115] , system: BRD9 (Homo sapiens, UniProt Q9H8M2).
Result: 1.25 to 10 nM

Ask: Specify the recorded DC50 for COc1cc(-c2cn(C)c(=O)c(C)c2C)cc(OC)c1CN1CC2CC(C1)N2Cc1cccc(C2CCCN2C(=O)/C(C#N)=C/c2cccc(Br)n2)c1 (mixture of isomers) [Compound B12] , system: BRD9 (Homo sapiens, UniProt Q9H8M2).
Result: 1.25 to 10 nM

Ask: Specify the recorded DC50 for COc1cc(-c2cn(C)c(=O)c(C)c2C)cc(OC)c1CN1CCN(Cc2cccc3c2CCN(C(=O)/C(C#N)=C/C2(C)CCOCC2)[C@H]3C)C2(CC2)C1 (single isomer, unassigned) [Compound B194] , system: BRD9 (Homo sapiens, UniProt Q9H8M2).
Result: 1.25 to 10 nM
